system: TK-10 renal; assay: NCI tumour cell line growth inhibition, 48 h; in the data active = GI50 below about 0.43 µM; inactive = the rest
Your reply should match one of these outcome classes. 1 (active), -1 (inactive)

Query string: What did this assay record as the result for O=C(O[C@H]1CN[C@H](C#Cc2cc3ncnc(Nc4ccc(Cc5ccccc5)cc4)c3s2)C1)N1CCOCC1 ?
Result string: -1

Query string: Same again, this time with CCCCCCCCCCCCCCCCCC(=O)[O][Sn]([CH2]CCC)([CH2]CCC)[CH2]CCC
Result string: 1

Query string: Same again, this time with Nc1ccccc1C#Cc1ccccc1C#Cc1ccccc1N
Result string: -1

Query string: Same again, this time with Cc1cc(N2CCOCC2)nc(N(CCNc2ccnc3cc(Cl)ccc23)Cc2ccco2)n1
Result string: -1

Query string: Same again, this time with S=C(Nc1ccc(-c2nc3ccccc3s2)cc1)Nc1ccccn1
Result string: -1
